procedure-details: Particle size of lipid-drug complex (photon correlation spectroscopy)
Assay type: physicochemical
protocol-conditions: drug associated with lipid membranes, pH 7.4
observation-type: Size in Diameter (nm)
Only the number, expressed in nm, is required.

Worked cases, answers included:
INSERT INTO assay_data (compound, observation_type, endpoint_value) VALUES
  ('CC(C)(C)NC(=O)[C@@H]1CN(Cc2cccnc2)CCN1C[C@@H](O)C[C@@H](Cc1ccccc1)C(=O)N[C@H]1c2ccccc2C[C@H]1O', 'Size in Diameter', 69),
  ('Cc1c(O)cccc1C(=O)N[C@@H](CSc1ccccc1)[C@H](O)CN1C[C@H]2CCCC[C@H]2C[C@H]1C(=O)NC(C)(C)C (relative stereo)', 'Size in Diameter', 123),
  ('CC(C)OC(=O)OCOP(=O)(CO[C@H](C)Cn1cnc2c(N)ncnc21)OCOC(=O)OC(C)C.O=C(O)/C=C/C(=O)O', 'Size in Diameter', 60);

// below: Size in Diameter requested for another compound
Q: Supply recorded Size in Diameter for `CC(C)(C)NC(=O)[C@@H]1C[C@@H]2CCCC[C@@H]2CN1C[C@@H](O)[C@H](Cc1ccccc1)NC(=O)[C@H](CC(N)=O)NC(=O)c1ccc2ccccc2n1` here.
Result: 159
